pKd values by entry
biological target: GIPC2, Q8TF65; assay: holdup assay; set-up: key: below the threshold = too weak to quantify, mostly under pKd 3.1 to 4; conditions: plain residues with an end cap or a label only (N-terminal biotin on a linker: ttds)
Sequence (Q8TF65 112-203): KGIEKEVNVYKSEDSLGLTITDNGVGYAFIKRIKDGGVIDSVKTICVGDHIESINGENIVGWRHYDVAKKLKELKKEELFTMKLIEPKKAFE
When you answer, write just the number.

>>> reported_measurement("NPDALPETLV [ARHGAP6, O43182]")
3.49

What pKd value was documented for this binder, SSIDLWETAL [SLC15A5, A6NIM6] ?
4.04

What do you get for PSRDRKETSI [RALBP1, Q15311] ?
3.58

What do you get for SHSSKGETAV [FZD7, O75084] ?
3.62

What do you get for FVETQHQTQV [FAT3, Q8TDW7] ?
3.66
